# test.details: gradient 5% acetonitrile 3 min, to 50% in 2 min, to 85% in 15 min, held 3 min, 100 µL/min
# experimental.parameters: column: Zorbax Extend-C18 2.1 x 50 mm; eluents: water / acetonitrile, 0.1% formic acid
property: RP-LC retention time (s)
Response body: numeric value in s, unit text excluded.

Reference set, count: 3
Challenge: Value lookup for RP-LC retention time; key = CCCCN1CCN(C(=O)C2CCN(c3nnc(-c4ccc(C)cc4)o3)CC2)CC1
Response given: 632

Challenge: Value lookup for RP-LC retention time; key = CCOc1ccc(-c2nc(C3CC(=O)N(c4ccc(CC)cc4)C3)no2)cc1OCC (centres undefined)
Response given: 1180

Challenge: Value lookup for RP-LC retention time; key = CCOc1ccc(-c2n[nH]c3c2C(c2ccc(O)c(OC)c2)NC3=O)cc1 (centres undefined)
Response given: 637

---
Challenge: Value lookup for RP-LC retention time; key = COc1ccc(-c2nc(-c3ccc4c(c3)ncn4CCC(=O)N3CCCC3)no2)cc1
Response given: 742

Challenge: Value lookup for RP-LC retention time; key = Cc1ccccc1NS(=O)(=O)c1cc2c(s1)CCN(C(=O)C1CC1)C2
Response given: 822

Challenge: Value lookup for RP-LC retention time; key = CC(C)CCNS(=O)(=O)c1ccc(-c2cc(C(F)(F)F)on2)o1
Response given: 1090

Challenge: Value lookup for RP-LC retention time; key = COc1ccc2[nH]c3c(c2c1)CCNC31CCN(S(=O)(=O)c2c(C)noc2C)CC1
Response given: 675

Challenge: Value lookup for RP-LC retention time; key = CC1CCc2nc3ncn(CC(=O)NCc4cccc(Br)c4)c(=O)c3cc2C1 (centres undefined)
Response given: 825

Challenge: Value lookup for RP-LC retention time; key = COCCCNC(=O)Cn1c(=O)n(-c2ccc(C)cc2)c2ncccc21
Response given: 692

Challenge: Value lookup for RP-LC retention time; key = CCCC(=O)Nc1ccc2c(c1)CN(C(=O)c1ccc(F)c(Cl)c1)C(C(=O)N(C)C)C2 (centres undefined)
Response given: 727

Challenge: Value lookup for RP-LC retention time; key = Cc1ccc(-c2cc3c4nnc(CCC(=O)NCc5ccccc5C(F)(F)F)n4ccn3n2)cc1C
Response given: 952
